The following compounds are shown together with reported T/C values.
- Test system: L1210 leukemia ip in BDF1 mice, survival T/C
- ASSAY OVERVIEW: NCI In Vivo Anticancer Drug Screen. Data for tumor model L1210 Leukemia (intraperitoneal) in B6D2F1 (BDF1) mice
- CONDITION SUMMARY: endpoint: mean survival time; dose: 100.0 mg/kg/injection; schedule: Q01DX009 (ip); vehicle: saline with Tween-80; higher = longer survival
Toxic doses and inconclusive results are not listed.

// lookup T/C for `CCOC(=O)CNC(=O)Oc1cc(C)cc(C)c1C`
98 % of control

Another: `Cc1cnc2c(N)nn(-c3ccccc3)c2n1`
93 % of control

Another: CC(=O)OCC(OC(C)=O)C(OC(C)=O)C(C=O)OC(C)=O (stereo not drawn)
90 % of control

Another: `CC(=O)CCC(=O)OC(C)(C)CN`
103 % of control

Another: `Cc1ccc(Cl)c2ccccc12`
93 % of control

Another: `C=CC/C(=C/CCC)CCC`
100 % of control

Another: `c1coc(NC2CCCCC2)n1`
100 % of control

Another: `CN(C)N=Nc1ccccc1Cl`
123 % of control

Another: COC(=O)NC1CCCCC1I (stereo not drawn)
89 % of control

Another: `COc1ccccc1NC(=O)Nc1ccccc1Cl`
88 % of control

Another: Cc1ccc(C(CC(=O)NN)NN)c(O)c1 (stereo not drawn)
101 % of control

Another: `O=C(NC(=S)Nc1cccc(C(F)(F)F)c1)c1cc([N+](=O)[O-])cc([N+](=O)[O-])c1`
89 % of control

Another: `Cc1ccc(N=Nc2ccc(C)cc2NC(=O)Nc2cc(C)ccc2C)cc1`
98 % of control

* * *

- System: L1210 leukemia ip in BDF1 mice, survival T/C
- ASSAY OVERVIEW: NCI In Vivo Anticancer Drug Screen. Data for tumor model L1210 Leukemia (intraperitoneal) in B6D2F1 (BDF1) mice
- CONDITION SUMMARY: endpoint: mean survival time; dose: 200.0 mg/kg/injection; schedule: Q01DX009 (ip); vehicle: acetone; higher = longer survival
Toxic doses and inconclusive results are not listed.
MEASURED METRIC: T/C

Field: example entries. Status: answers known.
TEST SMILES | T/C
C[C@]12C(=O)OC(=O)[C@H]1[C@H]1CC[C@@H]2C1 | 89 % of control
CCC(=O)NC | 97 % of control
C1OCC2(CO1)COCOC2 | 93 % of control

# evaluate next
# get_value(readout= T/C, system= L1210 leukemia ip in BDF1 mice, survival T/C) for `O=C(NO)c1ccccc1`
98 % of control

* * *

- Tested on: L1210 leukemia ip in BDF1 mice, survival T/C
- ASSAY OVERVIEW: NCI In Vivo Anticancer Drug Screen. Data for tumor model L1210 Leukemia (intraperitoneal) in B6D2F1 (BDF1) mice
- CONDITION SUMMARY: endpoint: mean survival time; dose: 200.0 mg/kg/injection; schedule: Q04DX002 (ip); vehicle: Klucel (hydroxypropylcellulose) (HPC); higher = longer survival
Inconclusive results and toxic doses are left out.
The following compounds are shown together with reported T/C values.

Field: example entries. Status: answers known.
COMPOUND | T/C
CCOC(=O)C1OC1(C)C (centres undefined) | 103 % of control
CCCCCCCCCCCCC(C)C(=O)O (centres undefined) | 98 % of control
NNC(=O)CNc1cccc(Br)c1 | 108 % of control

# evaluate next
// lookup T/C for `C1CCC(N2CN(C3CCCCC3)CN(C3CCCCC3)C2)CC1`
106 % of control
